# target_or_system: UniProt P28223
# protocol: cell-based
# Design: expressed in transfected cells; host or cells: HEK293T cells, transient co-transfection
# conditions_used: HEK-293T, BRET1 beta-arrestin2 recruitment, HEK293T, normalized to 5-HT; read-out: 5HT2A β-Arr Emax (%)
Give Emax for every item shown.
One number for each entry, in %.

# molecule, Emax [%]
data = [
    ("Fc1cc(Cl)c2[nH]nc(N3CCNCC3)c2c1", 29),
]

State the recorded Emax for every item in the following list.
1. Cc1c(F)ccc2c(C3=CCCN(C)C3)c[nH]c12
2. CCCN1CC=C(c2n[nH]c3c(Cl)cccc23)C1

[48.9, 31.5]

Record Emax for all entries; do not skip any.
1. Cc1cccc2c(N3CCNCC3)n[nH]c12
2. Cc1cccc2c(C34CNCC3C4)n[nH]c12 (centres unmarked)

45.3
46.9

---

# target_or_system: 5HT2A receptor (Homo sapiens, UniProt P28223)
# Sequence (P28223 whole entry): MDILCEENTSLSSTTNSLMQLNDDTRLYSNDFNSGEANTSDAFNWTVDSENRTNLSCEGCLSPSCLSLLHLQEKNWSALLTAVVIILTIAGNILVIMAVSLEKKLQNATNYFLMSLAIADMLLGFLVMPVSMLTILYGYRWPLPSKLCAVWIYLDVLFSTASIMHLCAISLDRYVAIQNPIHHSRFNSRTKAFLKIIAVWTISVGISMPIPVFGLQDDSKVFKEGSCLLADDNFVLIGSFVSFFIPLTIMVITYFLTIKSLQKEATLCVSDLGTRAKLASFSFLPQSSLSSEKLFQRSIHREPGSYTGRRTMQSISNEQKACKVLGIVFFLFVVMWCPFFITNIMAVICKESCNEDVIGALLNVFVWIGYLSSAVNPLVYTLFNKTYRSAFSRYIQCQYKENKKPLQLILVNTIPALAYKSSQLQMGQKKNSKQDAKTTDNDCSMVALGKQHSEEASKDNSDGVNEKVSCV
# protocol: biochemical
# Type: binding
# Set-up: expressed in transfected cells; crude membranes
# conditions_used: 5HT2A Ki (nM), secondary radioligand binding, Ki from IC50 by Cheng-Prusoff
Binarize Ki at 800 nM; below is Condition met, at or above is Condition not met.

The following compounds have reported results that may help.
# compound, cat
rows = [
    ("C1=C(c2c[nH]c3nccc(-c4ccccc4)c23)CNCC1 [Example 12]", "Condition met"),
    ("CCN(CC)C(=O)NC1C=C(c2c[nH]c3ncccc23)CNC1 (stereo not shown) [Example 49]", "Condition not met"),
    ("CC(C)(C)c1cccc2c(C3=CCCN(Cc4ccccc4)C3)c[nH]c12 [Example 72]", "Condition met"),
    ("CN1CCC=C(c2n[nH]c3c(Cl)cccc23)C1 [Example 106]", "Condition met"),
]

I'd appreciate it if you could check whether CC(C)c1ccc2c(C3=CCCN(C)C3)c[nH]c2c1 [Example 34] has Ki smaller than 800 nM. Condition met

What do we get for Clc1cccn2c(C3=CCCNC3)cnc12 [Example 110] ? Condition not met

Then this compound: CN1CCC=C(c2n[nH]c3ccc(Cl)cc23)C1 [Example 101] Condition met

Would you kindly repeat that for CN1CCC=C(c2c[nH]c3ncc(F)cc23)C1 [Example 118] ? Condition met

---

# target_or_system: 5HT2A receptor (Homo sapiens, UniProt P28223)
# protocol: cell-based
# Parameters: expressed in transfected cells; host or cells: HEK293T cells, transient co-transfection
# conditions_used: 5HT2A β-Arr EC50 (nM), BRET1 beta-arrestin2 recruitment, HEK293T
reported_property: EC50 (nM)
Numbers only, in nM.

# compound, measurement_unit, EC50
rows = [
    ("Clc1cc(Br)cc2c(C3CNC3)c[nH]c12 [Example 267]", "nM", 1050),
]

# batch size: 6; output EC50 per entry
1. CCN1CCC=C(c2nn(CC)c3c(Cl)cccc23)C1 [Example 146]
2. Fc1ccc2c(C34CNCC3C4)c[nH]c2c1Cl (stereo not shown) [Example 280]
3. Cc1cccc2c(C34CNCC3C4)c[nH]c12 (stereo not shown) [Example 272]
4. Clc1cccc2c(C34CNCC3C4)c[nH]c12 (stereo not shown) [Example 270]
5. C=CCc1cccc2c(C3=CCCN(C)C3)c[nH]c12 [Example 257]
6. CCCN1CCC=C(c2c[nH]c3c(Cl)c(F)ccc23)C1 [Example 160]

1. 1530
2. 256
3. 1500
4. 822
5. 105
6. 144
